The entries below come with measured Population Membrane Permeable-Phenotype (%) values attached.
Test system: HEK-293T
Experiment: Multiplex assay against HEK293T
Format: toxicity, cell-based
Conditions: human, 12 h, 10 µM, compound concentration 10 uM, replicate 1
Value expressed in %; do not type the unit.

Some compounds with recorded Population Membrane Permeable-Phenotype (%):
Compound	Unit Spec	Val
Cc1c(Nc2ccc(S(=O)(=O)N3CCN(C)CC3)cc2F)nc2ccc(Nc3cnn(C4CC4)c3)cn2c1=O	%	4
CCCCCNC(=N)N/N=C/c1c[nH]c2ccc(OC)cc12.O=C(O)/C=C\C(=O)O [TEGASEROD MALEATE]	%	0
COc1ccccc1-c1cc(Nc2cccc(CS(N)(=O)=O)c2)ncn1	%	3

Task item: Data request, read-out Population Membrane Permeable-Phenotype (%), for CC(Cc1ccc(O)c(O)c1)C(C)Cc1ccc(O)c(O)c1 (centres undefined) [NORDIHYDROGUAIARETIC ACID]
Reply: 3

Task item: Data request, read-out Population Membrane Permeable-Phenotype (%), for Cl.Cn1c2c(c3ccc(Cl)c(Cl)c31)C(C#N)C1(CCNCC1)NC2=O (centres undefined)
Reply: 23

---

System: HEK-293T
Experiment: Multiplex assay against HEK293T;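 as to Population Tubulin-Different-Phenotype (%): share of the cells with healthy nuclei that show this phenotype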
Type: toxicity, cell-based
Conditions: human, 12 h, 10 µM, compound concentration 10 uM, replicate 2
Population Tubulin-Different-Phenotype (%) less than 9% is 1; Population Tubulin-Different-Phenotype (%) greater than or equal to 9% is -1.

# example entries with known answers
Compound	Answer Label
C=CC(=O)Nc1cc(-n2c(=O)ccc3cnc4ccc(-c5ccc(NS(C)(=O)=O)cc5)cc4c32)ccc1C	-1
c1ccc(-c2oc3ncnc(NC[C@@H]4CCCO4)c3c2-c2ccccc2)cc1	-1
Cc1ccc(S(=O)(=O)NC2c3ccccc3Oc3ccccc32)cc1	-1
CC(C)c1cc(Nc2nc(N3CCC[C@H](N)C3)ncc2C(N)=O)cc(C(C)C)n1	-1
CCCCN(CC)c1nc(C)nc2c1c(C)cn2-c1c(C)cc(C)cc1C.Cl	-1

Task item: Lab log: compare recorded Population Tubulin-Different-Phenotype (%) with 9%; is it strictly lower for `CC(/C=C1\SC(=S)N(CCCC(=O)Nc2ccc(C(=O)O)c(O)c2)C1=O)=C\c1ccccc1` ?
Reply: 1

---

System: Fibroblast
Experiment: Multiplex assay against human fibroblast
Type: toxicity, cell-based
Settings: 48 h, 10 µM, compound concentration 10 uM, replicate 1
Measured Attribute: Population Tubulin-Different-Phenotype (%)
Value expressed in %; do not type the unit.

Molecule	Val
CC(C)C[C@H](NC(=O)[C@H](Cc1ccccc1)NC(=O)CNC(=O)CNC(=O)[C@@H](N)Cc1ccc(O)cc1)C(=O)O [ENKEPHALIN]	31
CCCCCNC(=N)N/N=C/c1c[nH]c2ccc(OC)cc12.O=C(O)/C=C\C(=O)O [TEGASEROD MALEATE]	64

Shift focus to the following entry.
Task item: Data request, read-out Population Tubulin-Different-Phenotype (%), for `Cc1c(P(=S)(c2ccccc2)c2ccccc2)n2ccccc2[n+]1C/C=C/c1ccccc1.[Br-]`
Reply: 95

---

System: U2OS
Assay: Multiplex assay against U2OS
Format: toxicity, cell-based
Conditions: human, 48 h, 1 µM, compound concentration 1 uM, replicate 2
Label not satisfied if Population Mitochondria Different-Phenotype (%) falls below 20%; label satisfied in every other case.

Compound	Answer Label
Cc1c(P(=S)(c2ccccc2)c2ccccc2)n2ccccc2[n+]1C/C=C/c1ccccc1.[Br-]	satisfied
Oc1cccc(-c2nc(N3CCOCC3)c3oc4ncccc4c3n2)c1 [PI-103]	not satisfied
Cl.NC[C@@H]1O[C@H](C23CC4CC(CC(C4)C2)C3)Cc2c1ccc(O)c2O	satisfied
CC(C)[C@H](CO)Nc1nc(Nc2cccc(Cl)c2)c2ncn(C(C)C)c2n1 [PURVALANOLA]	satisfied
CC(C)c1cc(Nc2nc(N3CCC[C@H](N)C3)ncc2C(N)=O)cc(C(C)C)n1	satisfied
C=CC(=O)Nc1cc(-n2c(=O)ccc3cnc4ccc(-c5ccc(NS(C)(=O)=O)cc5)cc4c32)ccc1C	not satisfied

Task item: State whether the measured Population Mitochondria Different-Phenotype (%) reaches 20%, counting equality as reaching it, for `CCCc1cc(C)[nH]c(=O)c1CNC(=O)c1cc(-c2ccc(N3CCN(C(C)C)CC3)nc2)cc2c1cnn2C(C)C`
Reply: satisfied

Task item: State whether the measured Population Mitochondria Different-Phenotype (%) reaches 20%, counting equality as reaching it, for C[C@@H](Oc1cc(-n2cnc3ccc(CN4CCN(C)CC4)cc32)sc1C(N)=O)c1ccccc1C(F)(F)F [GSK-461364]
Reply: satisfied

---

The entries below come with measured Population Membrane Permeable-Phenotype (%) values attached.
System: HEK-293T
Assay: Multiplex assay against HEK293T
Type: toxicity, cell-based
Conditions: human, 12 h, 10 µM, compound concentration 10 uM, replicate 2
Value expressed in %; do not type the unit.

Some compounds with recorded Population Membrane Permeable-Phenotype (%):
Compound	Val
Cc1ccc(S(=O)(=O)NC2c3ccccc3Oc3ccccc32)cc1	12
CC(Cc1ccc(O)c(O)c1)C(C)Cc1ccc(O)c(O)c1 (centres undefined) [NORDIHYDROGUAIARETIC ACID]	1

Task item: Data request, read-out Population Membrane Permeable-Phenotype (%), for `CC[C@@H]1C(=O)N(C)c2cnc(Nc3ccc(C(=O)NC4CCN(C)CC4)cc3OC)nc2N1C1CCCC1`
Reply: 24

Task item: Data request, read-out Population Membrane Permeable-Phenotype (%), for `Cl.NC[C@@H]1O[C@H](C23CC4CC(CC(C4)C2)C3)Cc2c1ccc(O)c2O`
Reply: 9

Task item: Data request, read-out Population Membrane Permeable-Phenotype (%), for `c1ccc(-c2oc3ncnc(NC[C@@H]4CCCO4)c3c2-c2ccccc2)cc1`
Reply: 17

Task item: Data request, read-out Population Membrane Permeable-Phenotype (%), for `N#Cc1cccc(C(=O)Nc2cc(-c3ccccc3)nn2-c2ccccc2)c1`
Reply: 14

Task item: Data request, read-out Population Membrane Permeable-Phenotype (%), for `CC[C@H](Nc1ncnc2[nH]cnc12)c1nc2cccc(F)c2c(=O)n1-c1ccccc1`
Reply: 1

Task item: Data request, read-out Population Membrane Permeable-Phenotype (%), for `CN(c1cc(C(F)(F)F)nc(OCCC(=O)O)n1)c1cccc2c1CCC2`
Reply: 6

Task item: Data request, read-out Population Membrane Permeable-Phenotype (%), for Cl.Cn1c2c(c3ccc(Cl)c(Cl)c31)C(C#N)C1(CCNCC1)NC2=O (centres undefined)
Reply: 24

---

System: Fibroblast
Test: Multiplex assay against human fibroblast
Assay type: toxicity, cell-based
Conditions: 24 h, 10 µM, compound concentration 10 uM, replicate 1
The entries below come with measured Population Healthy Nuclei (%) values attached.
Value expressed in %; do not type the unit.

Molecule	Unit Spec	Val
Cc1ccc(S(=O)(=O)NC2c3ccccc3Oc3ccccc32)cc1	%	53
Cc1c(Nc2ccc(S(=O)(=O)N3CCN(C)CC3)cc2F)nc2ccc(Nc3cnn(C4CC4)c3)cn2c1=O	%	63
Cl.NC[C@@H]1O[C@H](C23CC4CC(CC(C4)C2)C3)Cc2c1ccc(O)c2O	%	52
CC(C)c1cc(Nc2nc(N3CCC[C@H](N)C3)ncc2C(N)=O)cc(C(C)C)n1	%	42
CC(C)[C@H](CO)Nc1nc(Nc2cccc(Cl)c2)c2ncn(C(C)C)c2n1	%	47
N#CCNC(=O)c1ccc(-c2ccnc(Nc3ccc(N4CCOCC4)cc3)n2)cc1	%	37
CC(Cc1ccc(O)c(O)c1)C(C)Cc1ccc(O)c(O)c1 (centres undefined) [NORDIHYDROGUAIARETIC ACID]	%	62
C[C@@H](Oc1cc(-n2cnc3ccc(CN4CCN(C)CC4)cc32)sc1C(N)=O)c1ccccc1C(F)(F)F	%	42
CCCCCNC(=N)N/N=C/c1c[nH]c2ccc(OC)cc12.O=C(O)/C=C\C(=O)O [TEGASEROD MALEATE]	%	7
Oc1cccc(-c2nc(N3CCOCC3)c3oc4ncccc4c3n2)c1	%	32

Task item: Data request, read-out Population Healthy Nuclei (%), for `CC[C@H](Nc1ncnc2[nH]cnc12)c1nc2cccc(F)c2c(=O)n1-c1ccccc1`
Reply: 59

Task item: Data request, read-out Population Healthy Nuclei (%), for CN1C(=O)[C@@H](NC(=O)c2cc3ccccc3[nH]2)N=C(c2ccccc2)c2ccccc21 [DEVAZEPIDE]
Reply: 54

Task item: Data request, read-out Population Healthy Nuclei (%), for `N#Cc1cccc(C(=O)Nc2cc(-c3ccccc3)nn2-c2ccccc2)c1`
Reply: 39

Task item: Data request, read-out Population Healthy Nuclei (%), for `CCOc1ccn(-c2ccc(F)cc2)c(=O)c1C(=O)Nc1ccc(Oc2ccnc(N)c2Cl)c(F)c1`
Reply: 62

---

Test system: U2OS
Experiment: Multiplex assay against U2OS
Format: toxicity, cell-based
Conditions: human, 12 h, 10 µM, compound concentration 10 uM, replicate 1
Measured Attribute: Population Membrane Permeable-Phenotype (%)
Value expressed in %; do not type the unit.

Some compounds with recorded Population Membrane Permeable-Phenotype (%):
Compound	Tested Target	Val
CC[C@@H]1C(=O)N(C)c2cnc(Nc3ccc(C(=O)NC4CCN(C)CC4)cc3OC)nc2N1C1CCCC1	U2OS	41
CCOc1ccn(-c2ccc(F)cc2)c(=O)c1C(=O)Nc1ccc(Oc2ccnc(N)c2Cl)c(F)c1	U2OS	5
N#CCNC(=O)c1ccc(-c2ccnc(Nc3ccc(N4CCOCC4)cc3)n2)cc1	U2OS	10
Cc1c(P(=S)(c2ccccc2)c2ccccc2)n2ccccc2[n+]1C/C=C/c1ccccc1.[Br-]	U2OS	88

Shift focus to the following entry.
Task item: Data request, read-out Population Membrane Permeable-Phenotype (%), for `CC[C@@]1(O)C(=O)OCc2c1cc1n(c2=O)Cc2cc3ccccc3nc2-1`
Reply: 16
